Biological target: human insulin receptor isoform A (human, UniProt P06213-2 28-1370)
Sequence (P06213 other isoform, or with tags, fused parts or gaps): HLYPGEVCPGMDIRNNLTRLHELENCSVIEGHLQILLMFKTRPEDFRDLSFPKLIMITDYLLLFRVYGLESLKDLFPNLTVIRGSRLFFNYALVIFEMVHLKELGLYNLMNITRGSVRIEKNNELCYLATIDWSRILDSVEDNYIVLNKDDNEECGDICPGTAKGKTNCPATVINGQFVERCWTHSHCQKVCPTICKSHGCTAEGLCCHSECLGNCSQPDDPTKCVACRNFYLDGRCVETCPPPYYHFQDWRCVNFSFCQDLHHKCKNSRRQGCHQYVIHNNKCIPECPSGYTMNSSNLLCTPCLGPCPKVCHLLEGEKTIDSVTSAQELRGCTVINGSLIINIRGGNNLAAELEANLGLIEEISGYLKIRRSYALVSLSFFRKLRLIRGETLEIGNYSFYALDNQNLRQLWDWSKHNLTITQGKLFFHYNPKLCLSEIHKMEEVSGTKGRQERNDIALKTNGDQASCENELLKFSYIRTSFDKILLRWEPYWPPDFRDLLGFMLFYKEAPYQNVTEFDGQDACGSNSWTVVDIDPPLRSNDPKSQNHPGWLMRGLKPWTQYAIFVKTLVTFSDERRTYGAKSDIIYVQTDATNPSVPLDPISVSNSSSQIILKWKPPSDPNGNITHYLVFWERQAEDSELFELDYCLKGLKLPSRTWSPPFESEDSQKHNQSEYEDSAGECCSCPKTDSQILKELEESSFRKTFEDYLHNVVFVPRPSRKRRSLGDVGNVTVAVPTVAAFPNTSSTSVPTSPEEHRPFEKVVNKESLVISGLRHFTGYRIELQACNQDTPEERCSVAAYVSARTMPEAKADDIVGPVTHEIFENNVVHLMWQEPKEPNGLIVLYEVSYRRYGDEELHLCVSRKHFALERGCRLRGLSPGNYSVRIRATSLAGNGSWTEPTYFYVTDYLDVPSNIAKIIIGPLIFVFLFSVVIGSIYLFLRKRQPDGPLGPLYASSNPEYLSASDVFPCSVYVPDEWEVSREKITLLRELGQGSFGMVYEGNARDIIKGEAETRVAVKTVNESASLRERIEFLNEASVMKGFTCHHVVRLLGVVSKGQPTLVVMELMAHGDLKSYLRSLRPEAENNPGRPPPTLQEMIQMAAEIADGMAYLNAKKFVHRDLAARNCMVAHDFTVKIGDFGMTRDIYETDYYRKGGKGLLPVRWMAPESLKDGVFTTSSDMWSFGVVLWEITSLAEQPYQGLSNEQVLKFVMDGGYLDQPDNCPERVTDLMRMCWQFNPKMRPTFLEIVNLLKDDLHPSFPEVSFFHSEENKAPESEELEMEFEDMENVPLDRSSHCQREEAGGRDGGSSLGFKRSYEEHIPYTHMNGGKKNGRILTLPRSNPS
Assay: cell-based or functional assay
Below, each entry is listed alongside its reported hIR-A phosphorylation [EC50 nM] mean.

BINDER	UNIT_TAG	hIR-A phosphorylation [EC50 nM] mean
scl-Fc fusion protein INS022 (Fc fusion) FVNQHLCGSHLVEALELVCGERGFHYTPKTGSYPGGVGIVEQCCTSICSLSQLENYCGGEAEDLQVGQVELGGGPGAGSLQPEGSLQGGPSVFLFPPKPKDTLMISRTPEVTCVVVDVSHEDPEVKFNWYVDGVEVHNAKTKPREEQYNSTYRVVSVLTVLHQDWLNGKEYKCKVSNKALPAPIEKTISKAKGQPREPQVYTLPPSRDELTKNQVSLTCLVKGFYPSDIAVEWESNGQPENNYKTTPPVLDSDGSFFLYSKLTVDKSRWQQGNVFSCSVMHEALHNHYTQKSLSLSPGGGGGSAESKYGPPCPPCPA	nM	215
scl-Fc fusion protein INS002 (Fc fusion) FVNQHLCGSHLVEALYLVCGERGFFYTDKTEEYPGDVGIVEQCCTSICSLEQLENYCGGEAEDLQVGQVELGGGPGAGSLQPLALEGSLQGGPSVFLFPPKPKDTLMISRTPEVTCVVVDVSHEDPEVKFNWYVDGVEVHNAKTKPREEQYNSTYRVVSVLTVLHQDWLNGKEYKCKVSNKALPAPIEKTISKAKGQPREPQVYTLPPSRDELTKNQVSLTCLVKGFYPSDIAVEWESNGQPENNYKTTPPVLDSDGSFFLYSKLTVDKSRWQQGNVFSCSVMHEALHNHYTQKSLSLSPGGGGGSAESKYGPPCPPCPA	nM	36
scl-Fc fusion protein INS012 (Fc fusion) FVNQHLCGSHLVEALHLVCGERGFHYTPKTEEYPGDVGIVEQCCTSICSLSQLEDYCGGEAEDLQVGQVELGGGPGAGSLQPEGSLQGGPSVFLFPPKPKDTLMISRTPEVTCVVVDVSHEDPEVKFNWYVDGVEVHNAKTKPREEQYNSTYRVVSVLTVLHQDWLNGKEYKCKVSNKALPAPIEKTISKAKGQPREPQVYTLPPSRDELTKNQVSLTCLVKGFYPSDIAVEWESNGQPENNYKTTPPVLDSDGSFFLYSKLTVDKSRWQQGNVFSCSVMHEALHNHYTQKSLSLSPGGGGGSAESKYGPPCPPCPA	nM	466
scl-Fc fusion protein INS016 (Fc fusion) FVNQHLCGSHLVEALHLVCGERGFHYTPKTGSYPGGVGIVEQCCTSICSLSQLENYCGGEAEDLQVGQVELGGGPGAGSLQPEGSLQGGPSVFLFPPKPKDTLMISRTPEVTCVVVDVSHEDPEVKFNWYVDGVEVHNAKTKPREEQYNSTYRVVSVLTVLHQDWLNGKEYKCKVSNKALPAPIEKTISKAKGQPREPQVYTLPPSRDELTKNQVSLTCLVKGFYPSDIAVEWESNGQPENNYKTTPPVLDSDGSFFLYSKLTVDKSRWQQGNVFSCSVMHEALHNHYTQKSLSLSPGGGGGSAESKYGPPCPPCPA	nM	180

Reference for the values: patent US20260248892A1
